# growth listing for each entry below
Test system: CAKI-1 renal
Assay: NCI-60 one-dose screen, 48 h (100 = growth as untreated, 0 = no growth, -100 = all killed)
Conditions: 10 µM
Compounds without any hit were thinned out: in the full panel of roughly 83,000, 20% have a hit. The source made the active and inactive calls. How the source made its calls: active means growth percent below 10; inactive means the rest.

CNS(=O)(=O)Oc1ccc(-c2ccc3occc3c2)cc1; 93.3% (inactive)
C[C@]12CC[C@@H]3c4ccc(O)cc4CC[C@H]3[C@@H]1CC[C@@H]2NS(=O)(=O)c1ccc(C(F)(F)F)cc1; 38.6% (inactive)

Now look at this one.
Request: # lookup: growth of CC[C@@H](C(=O)[C@H](C)[C@H](O)[C@@H](C)[C@H]1O[C@H]([C@@H](CC)C(=O)O)CC[C@H]1C)C1O[C@]2(C=C[C@@H](O)[C@]3(CC[C@@](C)([C@H]4CC[C@](O)(CC)[C@H](C)O4)O3)O2)[C@H](C)C[C@@H]1C (stereo partly drawn)
Result: 22.2% (inactive)
